Target: P-gp (MDR1) (Homo sapiens)
Construct: host or cells: MDR1-MDCK (MDCK cells overexpressing MDR1)
Sequence (P08183 whole entry): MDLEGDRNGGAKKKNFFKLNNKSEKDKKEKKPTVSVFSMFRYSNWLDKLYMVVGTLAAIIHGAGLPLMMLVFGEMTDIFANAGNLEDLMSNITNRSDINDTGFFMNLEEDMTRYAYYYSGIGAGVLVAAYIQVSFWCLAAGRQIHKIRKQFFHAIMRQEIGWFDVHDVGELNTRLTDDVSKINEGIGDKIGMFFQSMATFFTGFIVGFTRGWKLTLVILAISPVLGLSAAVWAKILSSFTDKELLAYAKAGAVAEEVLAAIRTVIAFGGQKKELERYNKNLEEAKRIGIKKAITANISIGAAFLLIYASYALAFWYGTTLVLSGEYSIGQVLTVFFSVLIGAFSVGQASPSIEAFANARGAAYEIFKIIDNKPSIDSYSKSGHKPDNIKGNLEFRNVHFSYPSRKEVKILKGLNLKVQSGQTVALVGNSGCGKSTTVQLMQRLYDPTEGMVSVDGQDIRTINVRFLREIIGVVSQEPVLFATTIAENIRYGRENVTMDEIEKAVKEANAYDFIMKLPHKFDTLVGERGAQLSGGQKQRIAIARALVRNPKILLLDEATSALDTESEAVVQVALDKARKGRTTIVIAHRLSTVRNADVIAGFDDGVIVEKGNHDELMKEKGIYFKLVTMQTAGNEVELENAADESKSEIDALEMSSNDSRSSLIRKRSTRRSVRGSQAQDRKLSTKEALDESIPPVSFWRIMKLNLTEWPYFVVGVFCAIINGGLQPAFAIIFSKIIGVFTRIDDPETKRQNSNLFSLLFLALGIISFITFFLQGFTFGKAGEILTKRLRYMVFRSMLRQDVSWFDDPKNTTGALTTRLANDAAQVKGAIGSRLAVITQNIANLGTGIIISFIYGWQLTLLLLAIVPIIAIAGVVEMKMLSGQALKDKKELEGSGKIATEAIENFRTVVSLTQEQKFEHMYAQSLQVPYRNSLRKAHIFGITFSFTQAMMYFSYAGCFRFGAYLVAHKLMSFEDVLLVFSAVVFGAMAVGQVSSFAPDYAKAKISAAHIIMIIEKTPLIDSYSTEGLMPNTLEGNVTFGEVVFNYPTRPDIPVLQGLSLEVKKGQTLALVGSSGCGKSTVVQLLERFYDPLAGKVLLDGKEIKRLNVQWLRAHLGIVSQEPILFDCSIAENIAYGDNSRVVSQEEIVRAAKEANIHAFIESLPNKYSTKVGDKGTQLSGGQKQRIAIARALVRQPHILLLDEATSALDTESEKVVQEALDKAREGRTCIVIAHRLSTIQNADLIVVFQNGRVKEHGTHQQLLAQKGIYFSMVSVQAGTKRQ
Assay: P-glycoprotein efflux transporter substrate assay (MDR1-MDCK transwell)
Type: in vitro ADME
Conditions: dog; MDR1-MDCK; 10 µM MF; 120 min; without CsA
Experimental endpoint: Papp A→B at 120 min, 10 µM (×10⁻⁶ cm/s)

Molecular string	Value
CN(C)C(=N)N=C(N)N	0.258
